# experimental_system: gastrin (CCK2) receptors (Rattus norvegicus, UniProt P30553)
# Construct: The stomach was excised and flushed with ca. 1 ml of unbuffered physiological saline solution; from tissue; host or cells: isolated whole stomach of immature rats (ca. 21 days old)
# Sequence (P30553 whole entry): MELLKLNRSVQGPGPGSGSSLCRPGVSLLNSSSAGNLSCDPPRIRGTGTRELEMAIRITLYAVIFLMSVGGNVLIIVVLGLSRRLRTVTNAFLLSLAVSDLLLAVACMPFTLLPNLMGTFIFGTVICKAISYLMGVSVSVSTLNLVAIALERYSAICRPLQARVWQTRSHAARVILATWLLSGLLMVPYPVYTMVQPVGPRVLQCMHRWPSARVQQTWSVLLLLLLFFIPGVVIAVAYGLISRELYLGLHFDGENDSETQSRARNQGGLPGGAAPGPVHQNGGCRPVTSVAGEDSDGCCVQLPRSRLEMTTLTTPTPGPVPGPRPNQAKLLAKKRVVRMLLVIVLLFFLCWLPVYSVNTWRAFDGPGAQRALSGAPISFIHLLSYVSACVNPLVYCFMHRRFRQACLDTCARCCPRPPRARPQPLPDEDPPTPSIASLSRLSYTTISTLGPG
# run_description: gastrin (CCK2) antagonist activity in an immature rat stomach assay
# condition_description: pentagastrin dose-response curves, acid secretion, read-out: pKB rat stomach (converted)
assay_readout: Kb (nM)

As a guide, the following entries are already answered.
INSERT INTO assay_data (compound, experimental_system, assay_readout, endpoint_result) VALUES
  ('O=C(O)Cc1cccc(NC(=O)CN2N=C(c3ccccn3)c3ccccc3N(CC(=O)C3CCCC3)C2=O)c1', 'gastrin (CCK2) receptors (Rattus norvegicus, UniProt P30553)', 'Kb', 72.4),
  ('CC(C)(C)C(=O)CN1C(=O)N(CC(=O)Nc2cccc(NCC(=O)O)c2)N=C(C2CCCCC2)c2ccccc21', 'gastrin (CCK2) receptors (Rattus norvegicus, UniProt P30553)', 'Kb', 32.4);

a: C=C(CN1C(=O)N(CC(=O)Nc2cccc(CC(=O)O)c2)N=C(C2CCCCC2)c2ccccc21)C(C)(C)C
b: CC(C)(C)C(=O)CN1C(=O)N(CC(=O)Nc2cccc(CSCC(=O)O)c2)N=C(C2CCCCC2)c2ccccc21
c: CC1CCC(C2=NN(CC(=O)Nc3cccc(C(=O)O)c3)C(=O)N(CC(=O)C(C)(C)C)c3ccccc32)CC1 (centres unmarked)
Prompt: Sort the 3 compounds by Kb; largest first, smallest last. Form entry: ranked labels (order as requested).
Completion: a, b, c
(a: 50.1 nM, b: 3.8 nM, c: 0.776 nM)
